- Protocol Text: Study 2: pharmacokinetic drug-drug interaction of tipranavir 600 or 900 mg BID and ritonavir 100-500 mg BID, plasma levels by HPLC
- Assay type: in vivo, human
- Condition Details: both sexes, human, plasma, oral, Tipranavir 600 mg BID + RTV 100 mg BID, median (range), n=7
Value Kind: Tmax

[
  {
    "Compound": "CCC[C@@]1(CCc2ccccc2)CC(O)=C([C@H](CC)c2cccc(NS(=O)(=O)c3ccc(C(F)(F)F)cn3)c2)C(=O)O1 (relative stereo)",
    "Experimental Result": "2 h"
  }
]

###

- Protocol Text: Study 2: pharmacokinetic drug-drug interaction of tipranavir 600 or 900 mg BID and ritonavir 100-500 mg BID, plasma levels by HPLC
- Type: in vivo, human
- Condition Details: both sexes, human, plasma, oral, Ritonavir 500 mg BID + Tipranavir 900 mg BID, median (range), N=6

[
  {
    "Molecule": "CC(C)c1nc(CN(C)C(=O)N[C@H](C(=O)N[C@@H](Cc2ccccc2)C[C@H](O)[C@H](Cc2ccccc2)NC(=O)OCc2cncs2)C(C)C)cs1 [Ritonavir, reference compound]",
    "AUC [ng·h/mL]": 26000
  }
]

###

- Protocol Text: Study 2: pharmacokinetic drug-drug interaction of tipranavir 600 or 900 mg BID and ritonavir 100-500 mg BID, plasma levels by HPLC
- Format: in vivo, human
- Condition Details: both sexes, human, plasma, oral, Ritonavir 500 mg BID + Tipranavir 600 mg BID, median (range), N=7

[
  {
    "Compound": "CC(C)c1nc(CN(C)C(=O)N[C@H](C(=O)N[C@@H](Cc2ccccc2)C[C@H](O)[C@H](Cc2ccccc2)NC(=O)OCc2cncs2)C(C)C)cs1 [Ritonavir, reference compound]",
    "Tmax / h": 3
  }
]

###

- Protocol Text: Table 1: tipranavir drug-drug interaction potential and routes of elimination of antiretrovirals
- Condition Details: drug-drug interaction with tipranavir
Value Kind: Potential for Clinically Significant Interaction

[
  {
    "Chemical Structure": "Nc1nc(NC2CC2)c2ncn([C@H]3C=C[C@@H](CO)C3)c2n1",
    "Experimental Result": "Low"
  },
  {
    "Chemical Structure": "Nc1ccn([C@H]2CC[C@@H](CO)O2)c(=O)n1",
    "Experimental Result": "Low"
  }
]

###

- Protocol Text: Study 2: pharmacokinetic drug-drug interaction of tipranavir 600 or 900 mg BID and ritonavir 100-500 mg BID, plasma levels by HPLC
- Type: in vivo, human
- Condition Details: both sexes, human, plasma, oral, Tipranavir 600 mg BID + RTV 500 mg BID, median (range), n=7
Value Kind: Tmax (h)

[
  {
    "Compound": "CCC[C@@]1(CCc2ccccc2)CC(O)=C([C@H](CC)c2cccc(NS(=O)(=O)c3ccc(C(F)(F)F)cn3)c2)C(=O)O1 (relative stereo) [Tipranavir]",
    "Value Kind": "Tmax",
    "Unit Name": "h",
    "Experimental Result": 2
  }
]

###

- Protocol Text: Study 2: pharmacokinetic drug-drug interaction of tipranavir 600 or 900 mg BID and ritonavir 100-500 mg BID, plasma levels by HPLC
- Assay type: in vivo, human
- Condition Details: both sexes, human, plasma, oral, Tipranavir 600 mg BID + RTV 500 mg BID, median (range), n=7
Value Kind: AUC (µM·h)

[
  {
    "Compound": "CCC[C@@]1(CCc2ccccc2)CC(O)=C([C@H](CC)c2cccc(NS(=O)(=O)c3ccc(C(F)(F)F)cn3)c2)C(=O)O1 (relative stereo) [Tipranavir]",
    "Experimental Result": 446
  }
]

###

- Protocol Text: Study 2: pharmacokinetic drug-drug interaction of tipranavir 600 or 900 mg BID and ritonavir 100-500 mg BID, plasma levels by HPLC
- Type: in vivo, human
- Condition Details: both sexes, human, plasma, oral, Ritonavir 500 mg BID + Tipranavir 600 mg BID, harmonic mean (range), N=7; read-out: t½ (converted)
Value Kind: half-life (min)

[
  {
    "Molecule": "CC(C)c1nc(CN(C)C(=O)N[C@H](C(=O)N[C@@H](Cc2ccccc2)C[C@H](O)[C@H](Cc2ccccc2)NC(=O)OCc2cncs2)C(C)C)cs1 [Ritonavir, reference compound]",
    "Value Kind": "half-life",
    "Experimental Result": 108
  }
]

###

- Protocol Text: Study 2: pharmacokinetic drug-drug interaction of tipranavir 600 or 900 mg BID and ritonavir 100-500 mg BID, plasma levels by HPLC
- Format: in vivo, human
- Condition Details: both sexes, human, plasma, oral, Tipranavir 900 mg BID + RTV 500 mg BID, median (range), n=6

[
  {
    "Compound": "CCC[C@@]1(CCc2ccccc2)CC(O)=C([C@H](CC)c2cccc(NS(=O)(=O)c3ccc(C(F)(F)F)cn3)c2)C(=O)O1 (relative stereo)",
    "Tmax": "2 h"
  }
]

###

- Protocol Text: Study 2: pharmacokinetic drug-drug interaction of tipranavir 600 or 900 mg BID and ritonavir 100-500 mg BID, plasma levels by HPLC
- Format: in vivo, human
- Condition Details: both sexes, human, plasma, oral, Tipranavir 900 mg BID + RTV 500 mg BID, median (range), n=6
- Description: Both groups received their assigned dose of tipranavir continuously throughout the study period. […] The pharmacokinetics of tipranavir when coadministered with ritonavir were evaluated and compared with baseline data, while the ritonavir data were compared to historical data. […] Detection was by UV absorbance at 260 nm. […]

[
  {
    "Compound": "CCC[C@@]1(CCc2ccccc2)CC(O)=C([C@H](CC)c2cccc(NS(=O)(=O)c3ccc(C(F)(F)F)cn3)c2)C(=O)O1 (relative stereo) [Tipranavir]",
    "AUC / µM·h": 913
  }
]

###

- Protocol Text: Study 2: pharmacokinetic drug-drug interaction of tipranavir 600 or 900 mg BID and ritonavir 100-500 mg BID, plasma levels by HPLC
- Type: in vivo, human
- Condition Details: both sexes, human, plasma, oral, 600 mg, Tipranavir 600 mg BID alone, median (range), n=7

[
  {
    "Compound": "CCC[C@@]1(CCc2ccccc2)CC(O)=C([C@H](CC)c2cccc(NS(=O)(=O)c3ccc(C(F)(F)F)cn3)c2)C(=O)O1 (relative stereo)",
    "AUC / µM·h": 32.5
  }
]

###

- Protocol Text: Study 2: pharmacokinetic drug-drug interaction of tipranavir 600 or 900 mg BID and ritonavir 100-500 mg BID, plasma levels by HPLC
- Format: in vivo, human
- Condition Details: both sexes, human, plasma, oral, 900 mg, Tipranavir 900 mg BID alone, median (range), n=6
- Protocol: Both groups received their assigned dose of tipranavir continuously throughout the study period. […] The pharmacokinetics of tipranavir when coadministered with ritonavir were evaluated and compared with baseline data, while the ritonavir data were compared to historical data. […] Detection was by UV absorbance at 260 nm. […]

[
  {
    "Compound": "CCC[C@@]1(CCc2ccccc2)CC(O)=C([C@H](CC)c2cccc(NS(=O)(=O)c3ccc(C(F)(F)F)cn3)c2)C(=O)O1 (relative stereo)",
    "Cmax [µM]": 14.6
  }
]

Origin of the recorded values: patent EP1712231A2
